Data provenance: PubChem BioAssay (NCI)

Measured growth accompanies every entry in the list below.
Tested on: K-562 leukemia
protocol-text: NCI-60 one-dose screen, 48 h (100 = growth as untreated, 0 = no growth, -100 = all killed)
measurement-context: 10 µM unless noted
This is part of a sample that, as a whole, favours compounds with a hit. Of some 83,000 tested, about 20% had one in any assay.

molecule | growth, %
COc1ccc(-c2ccnc(SCc3cc4cc(Cl)ccc4[nH]c3=O)n2)cc1 | 79.1
COc1ccc(C(SCCNCc2cc(N(C)C)ccn2)(c2ccccc2)c2ccccc2)cc1 | -28.5
COc1cc(C2CC(c3cc(OC)c(OC)c(OC)c3)=NN2c2ccccc2)ccc1OCc1ccc(C)cc1 (stereo not drawn) | 92.8
CSc1ccc(C(=O)Nc2ccc3nn(/C(C#N)=C/c4ccccn4)nc3c2)cc1 | -1.86
CC(=O)Nc1ccc(-c2nc3cc(-c4ccc(O)cc4)ccc3n2C)cc1 | 15.5
CC1=C(C(=O)c2ccccc2)C(c2ccc(-n3cncn3)cc2)n2c(nc3ccccc32)N1 (stereo not drawn) | 74.6
COc1ccc(Cc2nn(CC(=O)N/N=C/c3ccc(F)cc3)c(=O)c3c(C)noc23)cc1 | 70.1
Cc1ccc(Cc2cnc(NC(=O)c3ccc(/C=C4\SC(=S)N(C)C4=O)cc3)s2)cc1 | 23.3
COc1cc2oc(-c3cccc(C(=O)Nc4ccc(Cl)cc4)c3)cc(=O)c2c(OCCNC(=O)[C@H](CCC(=O)OC(C)(C)C)NC(=O)OC(C)(C)C)c1OC | 81.5
CCOC(=O)c1ccc(Nc2nc(NN)nc(-c3ccc(OC)cc3)c2C#N)cc1 | 1.69
CN(C)c1ccnc(CNCCSC2(c3ccccc3)c3ccccc3C=Cc3ccccc32)c1 | -27.1
O=c1[nH]c2ccc(Cl)cc2cc1CSc1nccc(-c2ccc(Cl)cc2)n1 | 64.7
COc1ccc2c(c1)c(-c1cc3nc(-c4cn(C)c5ncccc45)cc(N)n3n1)cn2C | -31.2
CC(=O)OC[C@@]1(C)C2CC[C@]3(C)C(CC=C4C5CC(C)(C)CC[C@]5(C(=O)Nc5ccc(C)cc5)CC[C@]43C)[C@@]2(C)C[C@@H](OC(C)=O)[C@@H]1OC(C)=O (stereo partly drawn) | 21.6
COc1ccc(-c2c(Nn3cnnn3)no[n+]2[O-])cc1 | 30.2
COc1ccc(-c2nc(SCC(C)C)nc(NCCc3c[nH]c4ccccc34)c2C#N)cc1 | 33.1
COc1cccc(/C=C/c2nc3ccccc3c(=O)n2CC(=O)Nc2ccc(Cl)cc2)c1 | 84.6
O=C(COc1ccc(NC(=O)Nc2ccc(Cl)c(Cl)c2)cc1)N=Nc1c(O)[nH]c2ccc(Cl)cc12 | 4.71

====

Test system: SF-268 CNS
protocol-text: NCI-60 one-dose screen, 48 h (100 = growth as untreated, 0 = no growth, -100 = all killed)
measurement-context: 10 µM unless noted
The panel holds about 83,000 compounds, 20% with a hit somewhere; the sample as a whole holds those more often.
Documented growth across a set of compounds
outcome-measure: growth (%)

compound | outcome-measure | readout-number
O=C1NC(=O)/C(=C/c2ccccc2OCc2cc3ccccc3nc2Cl)S1 | growth | 58.7
CCCCc1c(Nn2cnnn2)no[n+]1[O-] | growth | 82.2
Nc1nc(C(F)(F)F)cs1 | growth | 99.3
C=C1CC[C@@H]2[C@]3(C)COC(c4cn[nH]c4-c4cccc(Br)c4)O[C@@H]3CC[C@@]2(C)[C@@H]1C/C=C1/C(=O)OCC1O (stereo not given in full) | growth | -22.7
COc1ccc(C2=NN(c3ccccc3)C(c3ccc(OC)c(OCc4ccccc4)c3)C2)cc1OC (stereo not given) | growth | 96.5
COc1ccc(-c2ccc(SCC(=O)NCCc3ccc(S(N)(=O)=O)cc3)nn2)cc1 | growth | 103
COc1ccc(C(=O)/C=C/c2ccc(OC)c(OCc3ccccc3)c2)cc1OC | growth | 21.1
CCN(CC)c1ccc(/C=N/Nc2nc(-c3ccc(C)cc3)cs2)c(O)c1 | growth | 105
Cc1ccc(NCC(=O)Cn2cc(COc3ccc(C=Nc4cnc5ccccc5c4)cc3)nn2)cc1 | growth | 123
NS(=O)(=O)c1ccc(CCNC(=O)CSc2ccc(-c3ccc(Br)cc3)nn2)cc1 | growth | 72.5

====

Test system: UACC-62 melanoma
protocol-text: NCI-60 one-dose screen, 48 h
measurement-context: 10 µM unless noted
This is part of a sample that, as a whole, favours compounds with a hit. Of some 83,000 tested, about 20% had one in any assay. The source made the active and inactive calls. How the source made its calls: active means growth percent below 10; inactive means the rest.
Classes used: active, inactive

compound | group
CCOC(=O)C1=C(N)N(c2ccccc2)C2=C(C(=O)CC(C)(C)C2)C1c1cccc(Cl)c1Cl (centres undefined) | inactive
OCC1(CCCc2ccccc2)CCCN(c2nccc3ccccc23)C1 (centres undefined) | inactive
CN(C)c1nc(NCCNS(=O)(=O)c2ccc(C(=O)/C=C/c3ccc(F)cc3)cc2)nc(Nc2ccc(F)cc2)n1 | active
C#CCOc1cc(N(CC)CC)ccc1C(C(=O)NC(C)(C)C)N(C(=O)C1CCc2cc(F)ccc2O1)c1ccc(Br)cc1 (centres undefined) | inactive
O=C(NNc1nc2cc(C(F)(F)F)ccc2n2cccc12)c1cnccn1 | active
COc1ccc(-c2nc3cc(C)ccc3n2CC(=O)N=Nc2c(O)[nH]c3ccc(OC)cc23)cc1 | active
CC(/C=C1\SC(=S)N(CCCC(=O)NC(CC(C)C)C(=O)O)C1=O)=C\c1ccccc1 (centres undefined) | inactive
CCN(CC)C(=O)N/C(N)=N/c1nc2ccccc2s1 | inactive
Cc1cc2nc3c([nH]c2cc1C)c1ccc(=O)cc1n3CCN(C)C | inactive
O=C(Nc1cccc(-n2cnc3cc(-c4ccc(O)cc4)ccc32)c1)C1CC1 | inactive
O=C(C1=CNC(=S)NC1c1ccc(O)cc1)c1cc2ccccc2oc1=O (centres undefined) | inactive
C#CCOc1cc(N(CC)CC)ccc1C(C(=O)NC(C)(C)C)N(C(=O)C1CCc2cc(F)ccc2O1)c1ccccc1F (centres undefined) | inactive
CN(C)c1nc(NCCNS(=O)(=O)c2ccc(C3=Nc4c(N)nc(N)nc4NC(c4ccc(F)cc4)C3)cc2)nc(Nc2ccc(F)cc2)n1 (centres undefined) | inactive
COc1cc(C2CC(c3cc(OC)c(OC)c(OC)c3)=NN2c2ccccc2)ccc1OCc1ccc(C)cc1 (centres undefined) | inactive
Cc1cccc(Nc2nc3ccccc3nc2/C=C/c2ccc(F)cc2)c1 | inactive
O=C(N/N=C/c1ccc(-c2ccc(O)cc2)s1)c1[nH]c2ccc(Br)cc2c1-c1ccccc1 | active
CNS(=O)(=O)c1ccc(Nc2ccc(C(F)(F)F)cc2)c(-c2cn(C)cn2)c1 | inactive
C/C(=N\N=C1/C(=O)Nc2ccccc21)c1ccc2c(c1)Nc1ccccc1S2 | inactive
C=C1CC[C@@H]2[C@]3(C)COC(c4cn[nH]c4-c4ccc(C)cc4)O[C@@H]3CC[C@@]2(C)[C@@H]1C/C=C1/C(=O)OCC1O (some centres undefined) | active

====

The reader will find reported growth values listed item by item below.
Tested on: TK-10 renal
protocol-text: NCI-60 one-dose screen, 48 h (100 = growth as untreated, 0 = no growth, -100 = all killed)
measurement-context: 10 µM unless noted
About 83,000 compounds went through this panel and 20% of them were active in at least one assay; those are over-represented in the sample as a whole.

molecule | target | growth, %
CN1C(=O)/C(=C/c2ccc(C(=O)Nc3ncc(Cc4ccc(Cl)cc4Cl)s3)cc2)SC1=S | TK-10 renal | 71.4
COc1ccc(-c2ccnc(SCc3cc4ccccc4[nH]c3=O)n2)cc1OC | TK-10 renal | 22.9
O=C(COc1ccc(NC(=O)Nc2ccc(Cl)c(Cl)c2)cc1)N=Nc1c(O)[nH]c2ccc([N+](=O)[O-])cc12 | TK-10 renal | 113
NS(=O)(=O)c1ccc(N=Nc2c(O)n(CC(=O)Nc3ccccc3)c3ccccc23)cc1 | TK-10 renal | 84
Cc1ccccc1[C@H]1C(C(=O)c2ccc(Cl)cc2)C2(N[C@@H]1c1ccccc1)C(=O)Nc1ccc(Br)cc12 (stereo partly drawn) | TK-10 renal | 41.6
COc1c(F)ccc(C(=O)Nc2ccc3nc(NC(=O)C4CCCN(S(=O)(=O)c5ccc(C#N)cc5)C4)sc3c2)c1F (stereo not drawn) | TK-10 renal | 112
CN(C)c1ccnc(CNCCSC2(c3ccc(C(F)(F)F)cc3)c3ccccc3C=Cc3ccccc32)c1 | TK-10 renal | 12.4
CCCCSc1nc(Nc2ccc(S(N)(=O)=O)cc2)c(C#N)c(-c2cc(OC)c(OC)c(OC)c2)n1 | TK-10 renal | 82.2

====

Consider the following molecules and their measured growth readings.
Tested on: SK-OV-3 ovarian
protocol-text: NCI-60 one-dose screen, 48 h (100 = growth as untreated, 0 = no growth, -100 = all killed)
measurement-context: 10 µM unless noted
Experimental: Growth inhibition of the SK-OV-3 human tumor cell line is measured as a screen for anti-cancer activity. Cells are grown in 96 well plates and exposed to the test compound for 48 hours. Compounds are tested at a single concentration, which is 10^-5 M for most compounds. The reported endpoint is percent growth (GI% or GIPRCNT), where numbers from 0 - 100% represent growth inhibition, and numbers from -100% - 0 represent cell death. For example, a value of 40 represents 60% growth inhibition. […]
The panel holds about 83,000 compounds, 20% with a hit somewhere; the sample as a whole holds those more often.

molecule | growth [%]
Brc1ccc(-c2n(Cc3ccc4ccccc4c3)c(-c3ccccc3)c(-c3ccccc3)[n+]2Cc2ccc3ccccc3c2)cc1 | -96.7
COc1ccc(/C=C/c2nc3ccccc3n3c(-c4ccc(Cl)cc4)nnc23)cc1 | 98.4
Cc1nc(Nc2ccccn2)sc1C(=O)CC(SCC(=O)Nc1ccc(Cl)cc1)c1ccccc1F (centres undefined) | 8.74
C=C1CCC2C3(C)COC(c4ccco4)OC3CCC2(C)C1CC(Sc1ccccc1)C1=CCOC1=O (centres undefined) | 141
NC(=S)Nc1cccc(NC(N)=S)c1 | 126
COc1cc(-c2ccc(/C=N/NC(=O)c3[nH]c4ccc(Br)cc4c3-c3ccccc3)s2)cc(OC)c1OC | 99.6
CCN1CCN(Cc2ccc(C(=O)Nc3cccc(C#Cc4cccc5[nH]nc(N)c45)c3)cc2C(F)(F)F)CC1 | -69.2
COc1ccc(N2N=C(c3ccc4c(c3)OCO4)CC2c2cccc(NC(=O)CCCNS(=O)(=O)c3ccc(F)cc3)c2)cc1 (centres undefined) | 83.5
CC(C)c1sc(NC(=O)c2cc(NC(=O)c3cc(NC(=O)c4nccn4C)cn3C)cn2C)nc1C(=O)NCCCN(C)C | 60
